Reference for the values: PubChem BioAssay (NCATS)

System: FAB9
test_summary: qHTS profiling for inhibitors of Plasmodium falciparum proliferation (AID 504749); further: nearly all actives have a fitted effect of over 60% in size
conditions: P. falciparum in erythrocytes, SYBR Green DNA, 72 h; series mostly up to 28.7 µM
Inconclusive results are not listed. Calls of active or inactive are those of the source. The call rests on the fitted dose curve; in most records, active means well fitted inhibition curve with a large enough effect; inconclusive means small, poorly fitted or top-dose-only effect; inactive means flat fitted curve, though single readings scatter.
Outcome (select one): active, inactive

Solved cases (3 shown):
1) CC(C)(C)CC(C)(C)c1ccc(OCCOCC[N+](C)(C)Cc2ccccc2)cc1: active
2) CN=C(NC#N)NCCSCc1csc(N=C(N)N)n1: inactive
3) NCCc1ccn[nH]1: inactive

QUERY: So what was the verdict on Cc1cc(=O)n(-c2ccccc2)n1C in this test?
RESULT: inactive

QUERY: So what was the verdict on COc1cc(OC)cc(OC)c1 in this test?
RESULT: inactive

QUERY: So what was the verdict on C1CCc2nnnn2CC1 in this test?
RESULT: inactive

QUERY: So what was the verdict on CCN(CC)CCNC(=O)COc1ccc(Cl)cc1 in this test?
RESULT: inactive

QUERY: So what was the verdict on O=C(CCN1CCC(c2ccccc2)C1)c1ccc2c(c1)OCCO2 (stereo not given) in this test?
RESULT: inactive
